System: breast line MDA468
Method Description: In vitro cell culture growth assay (MTS), MDA468
Type: cell-based, human
Test Settings: Homo sapiens, 72 h, MDA468 cells, three days after drug treatment
Outcome Measure: pIC50
# log scale: pIC50 equals minus log10 of the concentration in mol/L

query: Which pIC50 is reported for this compound? Oc1cccc(-c2nc(N3CCOCC3)c3cn[nH]c3n2)c1 [Example 204]
result: 5.10

query: Which pIC50 is reported for this compound? COC(=O)N1CCC(n2ncc3c(N4CCOCC4)nc(-c4ccc(NC(=O)Nc5ccc(CCN6CCNCC6)cc5)cc4)nc32)CC1 [Compound 916]
result: 6.96

query: Which pIC50 is reported for this compound? CNC(=O)Nc1ccc(-c2nc(N3CCOCC3)c3cnn(C4CCN(C(=O)C(C)C)CC4)c3n2)cc1 [Example 475]
result: 6.52

query: Which pIC50 is reported for this compound? CNC(=O)Nc1ccc(-c2nc(N3CCOCC3)c3cnn(C4CCN(C(=O)c5cccc(OC)c5)CC4)c3n2)cc1 [Example 364]
result: 6.52

query: Which pIC50 is reported for this compound? C[C@H]1COCCN1c1nc(-c2cccc(O)c2)nc2c1cnn2-c1ccccc1 [Compound 726]
result: 5.10

query: Which pIC50 is reported for this compound? O=C(Nc1ccncc1)Nc1ccc(-c2nc(N3CCOCC3)c3cnn(C4CCN(Cc5cccnc5)CC4)c3n2)cc1 [Example 340]
result: 7.00

query: Which pIC50 is reported for this compound? O=C(N1CCCC1)N1CCC(n2ncc3c(N4CCOCC4)nc(-c4ccc5[nH]ccc5c4)nc32)CC1 [Compound 123]
result: 5.74

====

Test system: breast line MDA468
Method Description: In vitro cell culture growth assay (MTS), MDA468
Format: cell-based, human
Test Settings: Homo sapiens, 72 h, MDA468 cells, three days after drug treatment
Exercise: state measured pIC50 for each of the molecules provided.
# log scale: pIC50 equals minus log10 of the concentration in mol/L

query: Which pIC50 is reported for this molecule? O=C(Nc1ccc(-c2nc(N3CCOCC3)c3cn[nH]c3n2)cc1)c1cccnc1 [Compound 524]
result: 4.22

query: Which pIC50 is reported for this molecule? CN(C)c1ccc(-c2nc(N3CCOCC3)c3cnn(-c4ccccc4)c3n2)cc1
result: 4.57

query: Which pIC50 is reported for this molecule? COC(=O)N1CCC(n2ncc3c(N4CCOCC4)nc(-c4ccc(NC(=O)OCCN(C)C)cc4)nc32)CC1
result: 5.11

query: Which pIC50 is reported for this molecule? CNC(=O)Nc1ccc(-c2nc(N3CCOCC3)c3cnn(C4CCN(Cc5ccco5)CC4)c3n2)cc1
result: 6.30

====

Assayed System: PI3K (Homo sapiens, UniProt P42336)
Sequence (P42336 whole entry): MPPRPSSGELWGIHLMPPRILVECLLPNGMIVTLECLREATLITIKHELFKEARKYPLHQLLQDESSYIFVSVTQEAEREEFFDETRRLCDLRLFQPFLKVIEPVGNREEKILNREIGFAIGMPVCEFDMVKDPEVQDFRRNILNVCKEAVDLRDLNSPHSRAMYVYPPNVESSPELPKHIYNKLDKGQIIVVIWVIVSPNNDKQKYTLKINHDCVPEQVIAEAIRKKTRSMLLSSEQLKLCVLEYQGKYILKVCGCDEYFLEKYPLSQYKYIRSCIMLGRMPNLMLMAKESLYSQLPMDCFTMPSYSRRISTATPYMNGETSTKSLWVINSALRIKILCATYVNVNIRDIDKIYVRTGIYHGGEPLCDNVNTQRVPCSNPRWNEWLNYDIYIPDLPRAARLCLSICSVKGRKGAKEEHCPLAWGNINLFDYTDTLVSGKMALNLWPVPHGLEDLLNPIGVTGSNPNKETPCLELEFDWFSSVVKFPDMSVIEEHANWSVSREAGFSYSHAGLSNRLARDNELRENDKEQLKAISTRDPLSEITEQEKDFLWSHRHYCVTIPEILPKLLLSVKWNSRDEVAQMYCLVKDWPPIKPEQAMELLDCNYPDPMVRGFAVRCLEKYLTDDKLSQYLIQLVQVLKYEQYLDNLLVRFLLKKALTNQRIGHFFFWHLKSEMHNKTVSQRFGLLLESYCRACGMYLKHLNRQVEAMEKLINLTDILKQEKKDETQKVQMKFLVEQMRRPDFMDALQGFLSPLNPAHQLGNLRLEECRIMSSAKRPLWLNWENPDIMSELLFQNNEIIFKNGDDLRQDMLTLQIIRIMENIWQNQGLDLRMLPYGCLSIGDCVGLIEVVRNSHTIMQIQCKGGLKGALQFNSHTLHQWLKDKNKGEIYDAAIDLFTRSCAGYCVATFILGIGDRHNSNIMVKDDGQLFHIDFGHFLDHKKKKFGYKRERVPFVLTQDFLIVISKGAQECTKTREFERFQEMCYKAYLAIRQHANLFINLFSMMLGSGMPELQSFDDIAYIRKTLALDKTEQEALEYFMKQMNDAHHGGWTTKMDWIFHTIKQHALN
Sequence (P27986 whole entry partner): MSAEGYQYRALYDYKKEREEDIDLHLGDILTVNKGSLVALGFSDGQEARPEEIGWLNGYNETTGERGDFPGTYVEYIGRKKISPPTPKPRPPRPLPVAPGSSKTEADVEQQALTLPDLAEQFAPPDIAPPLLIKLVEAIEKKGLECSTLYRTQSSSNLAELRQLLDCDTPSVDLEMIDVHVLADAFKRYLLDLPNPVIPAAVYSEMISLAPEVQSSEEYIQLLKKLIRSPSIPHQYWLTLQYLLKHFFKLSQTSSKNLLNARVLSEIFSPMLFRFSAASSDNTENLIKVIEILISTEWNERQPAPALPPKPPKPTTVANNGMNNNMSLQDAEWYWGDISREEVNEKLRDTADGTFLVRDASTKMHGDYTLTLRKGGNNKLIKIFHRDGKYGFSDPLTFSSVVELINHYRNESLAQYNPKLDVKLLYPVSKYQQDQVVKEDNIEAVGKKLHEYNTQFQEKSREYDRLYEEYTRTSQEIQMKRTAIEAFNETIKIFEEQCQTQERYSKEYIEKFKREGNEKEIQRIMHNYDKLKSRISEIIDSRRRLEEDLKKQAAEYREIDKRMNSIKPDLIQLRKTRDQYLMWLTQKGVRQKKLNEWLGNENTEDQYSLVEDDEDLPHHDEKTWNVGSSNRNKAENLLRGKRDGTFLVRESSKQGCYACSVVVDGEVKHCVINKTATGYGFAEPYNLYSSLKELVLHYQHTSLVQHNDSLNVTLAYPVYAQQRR
Method Description: Fluorescence polarization assay for PI3K;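 also: PI3K kinase reaction on PIP2 with ATP, 30-60 min, product sensed by GST-GRP with red probe in fluorescence polarization (mP), controls without enzyme and at zero time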
Assay type: biochemical
Test Settings: PI3Kα; read-out: PI3Kα IC50
Exercise: state measured log10(IC50) for each of the molecules provided.
Recall that a logarithmic scale is used here: each number is log10 of IC50 in nM.

query: Quick check: log10(IC50) on PI3K (Homo sapiens, UniProt P42336), item CCNC(=O)Nc1ccc(-c2nc(N3CCOC[C@H]3C)c3cnn(C4CCN(C(=O)OCC)CC4)c3n2)cc1 ?
result: 3.64

query: Quick check: log10(IC50) on PI3K (Homo sapiens, UniProt P42336), item CNC(=O)Nc1ccc(-c2nc(N3CCOCC3)c3cnn(C4CCN(C(=O)c5ccccc5)CC4)c3n2)cc1 [Compound 580] ?
result: 1.80

query: Quick check: log10(IC50) on PI3K (Homo sapiens, UniProt P42336), item CN(C)CCCNC(=O)c1ccc(-c2nc(N3CCOCC3)c3cnn(-c4ccccc4)c3n2)cc1 ?
result: 2.51

query: Quick check: log10(IC50) on PI3K (Homo sapiens, UniProt P42336), item CNC(=O)Nc1ccc(-c2nc(N3CCOCC3)c3cnn(C4CCN(Cc5ccc(Cl)cc5)CC4)c3n2)cc1 [Compound 639] ?
result: 1.26

query: Quick check: log10(IC50) on PI3K (Homo sapiens, UniProt P42336), item CN1CCC(n2ncc3c(N4CCOCC4)nc(-c4ccc5[nH]ccc5c4)nc32)CC1 ?
result: 2.93

query: Quick check: log10(IC50) on PI3K (Homo sapiens, UniProt P42336), item c1ccc(-n2ncc3c(N4CCOCC4)nc(-c4cc5ccccc5s4)nc32)cc1 ?
result: 3.34

query: Quick check: log10(IC50) on PI3K (Homo sapiens, UniProt P42336), item CCNC(=O)Nc1ccc(-c2nc(N3CCOC[C@@H]3C)c3cnn(C4CCN(C(=O)OCC)CC4)c3n2)cc1 ?
result: 2.74

query: Quick check: log10(IC50) on PI3K (Homo sapiens, UniProt P42336), item CNC(=O)Nc1ccc(-c2nc(N3CCOCC3)c3cnn(C4CCN(C(=O)c5cccc(C)c5)CC4)c3n2)cc1 [Compound 612] ?
result: 1.86

query: Quick check: log10(IC50) on PI3K (Homo sapiens, UniProt P42336), item O=C(Nc1ccc(-c2nc(N3CCOCC3)c3cnn(C4CCN(CC(F)(F)F)CC4)c3n2)cc1)Nc1cccnc1 ?
result: 1.60

query: Quick check: log10(IC50) on PI3K (Homo sapiens, UniProt P42336), item CCOC(=O)N1CCC(n2ncc3c(N4CCOCC4)nc(-c4ccc(NC(=O)NC)cc4)nc32)CC1 ?
result: 2.34

query: Quick check: log10(IC50) on PI3K (Homo sapiens, UniProt P42336), item O=[N+]([O-])c1ccc(-c2nc(N3CCOCC3)c3cnn(-c4ccccc4)c3n2)cc1 ?
result: 3.06

query: Quick check: log10(IC50) on PI3K (Homo sapiens, UniProt P42336), item CNC(=O)Nc1ccc(-c2nc(N3CCOCC3)c3cnn(C4CCN(CC(N)=O)CC4)c3n2)cc1 [Example 332] ?
result: 1.82

query: Quick check: log10(IC50) on PI3K (Homo sapiens, UniProt P42336), item CNC(=O)Nc1ccc(-c2nc(N3CCOCC3)c3cnn(C4CCN(Cc5ccc(Cl)nc5)CC4)c3n2)cc1 [Compound 633] ?
result: 1.67

query: Quick check: log10(IC50) on PI3K (Homo sapiens, UniProt P42336), item COC(=O)Nc1ccc(-c2nc(N3CCOCC3)c3cnn(C4CCN(C(=O)c5ccccn5)CC4)c3n2)cc1 [Compound 685] ?
result: 3.28

query: Quick check: log10(IC50) on PI3K (Homo sapiens, UniProt P42336), item COc1ccc(NC2CCC(n3ncc4c(N5CCOCC5)nc(-c5ccc6[nH]ccc6c5)nc43)CC2)cc1 (centres unmarked) ?
result: 2.66

query: Quick check: log10(IC50) on PI3K (Homo sapiens, UniProt P42336), item O=C(Nc1ccncc1)Nc1ccc(-c2nc(N3CCOCC3)c3cnn(C4CCN(Cc5cccnc5)CC4)c3n2)cc1 [Compound 587] ?
result: 1.08

query: Quick check: log10(IC50) on PI3K (Homo sapiens, UniProt P42336), item CCOC(=O)N1CCC(n2ncc3c(N4CCOC[C@H]4C)nc(-c4ccc(NC(=O)Nc5cccnc5)cc4)nc32)CC1 ?
result: 2.66

query: Quick check: log10(IC50) on PI3K (Homo sapiens, UniProt P42336), item CCCOC(=O)N1CCC(n2ncc3c(N4CCOCC4)nc(-c4ccc(NC(=O)Nc5ccncc5)cc4)nc32)CC1 ?
result: 1.34

query: Quick check: log10(IC50) on PI3K (Homo sapiens, UniProt P42336), item COC(=O)Nc1ccc(-c2nc(N3CCOCC3)c3cnn(C4CCN(C(=O)c5ccccc5Cl)CC4)c3n2)cc1 [Example 444] ?
result: 2.89

query: Quick check: log10(IC50) on PI3K (Homo sapiens, UniProt P42336), item COC(=O)N1CCC(n2ncc3c(N4CCOCC4)nc(-c4ccc(NC(=O)Nc5ccc(N6CCOCC6)nc5)cc4)nc32)CC1 ?
result: 2.07

query: Quick check: log10(IC50) on PI3K (Homo sapiens, UniProt P42336), item Cc1cc(NC(=O)Nc2ccc(-c3nc(N4CCOCC4)c4cnn(C5CCN(C(=O)OC(C)(C)C)CC5)c4n3)cc2)on1 ?
result: 2.20

query: Quick check: log10(IC50) on PI3K (Homo sapiens, UniProt P42336), item CNC(=O)Nc1ccc(-c2nc(N3CCOCC3)c3cnn([C@@H]4CCCN(C(=O)OC(C)(C)C)C4)c3n2)cc1 ?
result: 2.47

query: Quick check: log10(IC50) on PI3K (Homo sapiens, UniProt P42336), item COC(=O)Nc1ccc(-c2nc(N3CCOCC3)c3cnn(C4CCN(Cc5ccccc5Cl)CC4)c3n2)cc1 [Compound 699] ?
result: 2.90

query: Quick check: log10(IC50) on PI3K (Homo sapiens, UniProt P42336), item c1ccc(CCN2CCC(n3ncc4c(N5CCOCC5)nc(-c5ccc6[nH]ccc6c5)nc43)CC2)cc1 [Compound 239] ?
result: 3.49

query: Quick check: log10(IC50) on PI3K (Homo sapiens, UniProt P42336), item NCCC(=O)Nc1ccc(-c2nc(N3CCOCC3)c3cn[nH]c3n2)cc1 [Compound 283] ?
result: 2.31

query: Quick check: log10(IC50) on PI3K (Homo sapiens, UniProt P42336), item CNC(=O)Nc1ccc(-c2nc(N3CCOCC3)c3cnn(C4CCN(C(=O)c5ccccc5OC)CC4)c3n2)cc1 [Example 365] ?
result: 1.91

query: Quick check: log10(IC50) on PI3K (Homo sapiens, UniProt P42336), item COCCOC(=O)Nc1ccc(-c2nc(N3CCOCC3)c3cnn(C4CCN(C(=O)OC)CC4)c3n2)cc1 ?
result: 3.48

query: Quick check: log10(IC50) on PI3K (Homo sapiens, UniProt P42336), item Nc1cc(F)c(-c2nc(N3CCOCC3)c3cnn(C4CCN(C(=O)c5cccnc5)CC4)c3n2)cc1F ?
result: 3.56

query: Quick check: log10(IC50) on PI3K (Homo sapiens, UniProt P42336), item Nc1cccc(-c2nc(N3CCOCC3)c3cnn(C4CCN(C(=O)c5cccnc5)CC4)c3n2)n1 [Compound 680] ?
result: 3.70
